// provenance: patent US20100209536A1

# System: any wheeze in the first 2 yrs
# assay overview: Project Viva antioxidant study: maternal intake and any wheeze in the first 2 yrs
# Assay type: in vivo, human
# experimental context: 2nd vs 1st (lowest) quartile of maternal intake; including supplements
measured quantity: Any wheeze in the first 2 yrs, Multivariable Model OR (95% CI)

Some solved cases for reference:
{"columns": ["compound", "target entity", "experimental value"],
 "data": [
  ["[Cu] [Copper, copper]", "any wheeze in the first 2 yrs", "0.93 (0.64, 1.35)"],
  ["Nc1nc2ncc(CNc3ccc(C(=O)N[C@@H](CCC(=O)O)C(=O)O)cc3)nc2c(=O)[nH]1 [Folic acid, folic acid]", "any wheeze in the first 2 yrs", "1.13 (0.78, 1.64)"],
  ["[Zn] [Zinc, zinc]", "any wheeze in the first 2 yrs", "0.89 (0.61, 1.29)"],
  ["CC(C)=CCC/C(C)=C/C=C/C(C)=C/C=C/C(C)=C/C=C/C=C(C)/C=C/C=C(C)/C=C/C=C(\\C)CCC=C(C)C [Lycopene, lycopene]", "any wheeze in the first 2 yrs", "1.50 (1.02, 2.19)"]
]}

I have 2 compounds here; please give me Any wheeze in the first 2 yrs, Multivariable Model OR (95% CI) for each one.
1. CC1=C(/C=C/C(C)=C/C=C/C(C)=C/C=C/C=C(C)/C=C/C=C(C)/C=C/C2=C(C)C[C@@H](O)CC2(C)C)C(C)(C)CCC1 [β Cryptoxanthin]
2. O=C1O[C@H]([C@@H](O)CO)C(O)=C1O [Vitamin C, ascorbic acid]

a:
["0.82 (0.57, 1.18)", "0.93 (0.65, 1.35)"]

I have 2 compounds here; please give me Any wheeze in the first 2 yrs, Multivariable Model OR (95% CI) for each one.
1. CC1=CCCC(C)(C)C1/C=C/C(C)=C/C=C/C(C)=C/C=C/C=C(C)/C=C/C=C(C)/C=C/C1=C(C)CCCC1(C)C (stereo not drawn) [α Carotene, α-carotene]
2. CC1=C(/C=C/C(C)=C/C=C/C(C)=C/C=C/C=C(C)/C=C/C=C(C)/C=C/C2=C(C)CCCC2(C)C)C(C)(C)CCC1 [β Carotene, β-carotene]

a:
["0.87 (0.60, 1.26)", "1.28 (0.88, 1.88)"]
